- Tested on: EfPiwi piRISC loaded with piRNA #1 (26 nt)
- assay.details: pre-steady-state target cleavage rate (min^-1); auxiliary factor: 500 nM Ephydatia muelleri Gtsf1; guide: piRNA #1 5'p-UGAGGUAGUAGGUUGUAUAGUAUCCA; MIWI and MILI are mouse PIWI proteins and EfPiwi is from a freshwater sponge; tags in brackets are library labels; higher = faster piRNA-guided slicing of the target
Please enter T where pre-steady-state target cleavage rate is greater than or equal to 0.006, and F where it is lower.

Query string: Decide: is the reported value of pre-steady-state target cleavage rate for GGAGACCUUACUAAACAACCUACUACCUCA equal to or greater than 0.006?
Result string: F

Query string: Decide: is the reported value of pre-steady-state target cleavage rate for GGAGAGGAUACUAUACUACCUACUUCCUCA equal to or greater than 0.006?
Result string: F

Query string: Decide: is the reported value of pre-steady-state target cleavage rate for GGAGUGGAUACUAACAACCUACUACCUCA equal to or greater than 0.006?
Result string: F

Query string: Decide: is the reported value of pre-steady-state target cleavage rate for GGAGAGGAUACUCAUACAACCUACUACCUCA equal to or greater than 0.006?
Result string: T

Query string: Decide: is the reported value of pre-steady-state target cleavage rate for GGAGUGGAUACUAUACAACCUACUACCUCG [g2:g26:cont:t1G] equal to or greater than 0.006?
Result string: T

Query string: Decide: is the reported value of pre-steady-state target cleavage rate for GGAGACCUAACUAUCCAACCUACUACCUCA equal to or greater than 0.006?
Result string: T

Query string: Decide: is the reported value of pre-steady-state target cleavage rate for GGAGACCUAUCUAUACAACCUACUACCUCCA equal to or greater than 0.006?
Result string: T
